System: Wnt5a (protein binding on small-molecule microarray)
Assay Name: small molecules binding Wnt5a protein – biophysical, small-molecule microarray, 635/667 nm fluorescence, primary screen (AID 1142);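 note: fluorescence read at 667 nm with signal to noise per printed feature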
Experimental Context: 635 nm fluorescence, higher = more signal
Values of composite z-score greater than or equal to 0.3 map to criterion met; values below map to criterion not met.

composite z-score >= 0.3 for C=C(COC)C(=O)CC[C@H](OC(=O)c1ccccc1-c1ccccc1C(=O)O)c1ccc(OCCO)cc1 ?
criterion met

Given C=CC[C@@]1(C(=O)NCC(O)CO)N=C(c2ccc(OCCCO)cc2)O[C@@H]1c1ccccc1 (stereo not given in full) , state whether its composite z-score is at least 0.3.
criterion met

Reported composite z-score reaches at least 0.3 for COCCOC(=O)N1C(=O)[C@@]2(c3cc(C#CC4(O)CCCCCC4)ccc31)[C@H](C(=O)N1CCc3cc(OC)c(OC)cc3C1)[C@H]1C(=O)O[C@H](c3ccccc3)[C@H](c3ccccc3)N1[C@@H]2c1ccccc1OCCO ?
criterion met

Confirm if composite z-score reported for the molecule C=CCC(OC(C)=O)[C@@H]1[C@@H](N(Cc2cc3ccccc3o2)C(=O)Cc2ccc(OC)cc2)c2cc(OCCCO)ccc2N1C(=O)c1ccc(-c2ccccc2)cc1 (stereo not given in full) is 0.3 or above.
criterion not met

Has C=CCC(OC(C)=O)[C@@H]1[C@@H](N(Cc2ccc(-c3ccccc3)cc2)C(=O)c2cccc3ccccc23)c2cc(OCCCO)ccc2N1C(=O)c1ccc2ccccc2n1 (stereo not given in full) a recorded composite z-score greater than or equal to 0.3?
criterion not met

Does COCCOC(=O)N1C(=O)[C@@]2(c3cc(C#CCCO)ccc31)[C@H](C(=O)NC[C@H](O)c1ccccc1)[C@H]1C(=O)O[C@H](c3ccccc3)[C@H](c3ccccc3)N1[C@@H]2c1ccccc1OCCO have a reported composite z-score of at least 0.3?
criterion met

Does the reported composite z-score for Cc1ccc(S[C@]2(C(=O)NCCN3CCOCC3)CC(=O)N(C3Cc4ccccc4C3)[C@@H]2c2ccc(CO)cc2)cc1 fall at or above the 0.3 mark?
criterion not met

Hi team, for Cc1ccc(S[C@]2(C(=O)NCC(C)C)CC(=O)N(C3CCCCC3)[C@@H]2c2ccc(CO)cc2I)cc1 , is the recorded composite z-score at or above 0.3?
criterion not met

Determine whether this molecule has composite z-score no lower than 0.3: C[N+](C)(C)CCCC[C@@H]1NC(=O)[C@@H]2C[C@H](C(=O)O)[C@H](c3cccc(OCCO)c3)N2C1=O
criterion not met

Hello, I need to know if C[C@@]1([C@@H](NC(=O)c2cccs2)c2ccc(-c3ccccc3)cc2)C[C@H]1C1CCCCC1 has measured composite z-score not below 0.3. Thanks!
criterion not met

Check the entry C=CC[C@]1(C(=O)N(C)C)N=C(c2ccc(OCCCO)cc2)O[C@H]1c1ccccc1 : does composite z-score equal or exceed 0.3?
criterion met

Could you please find out whether COCCCNC(=O)[C@@]1(Cc2ccccc2)COC(c2ccc(OCCCO)cc2)=N1 has composite z-score that meets 0.3 or exceeds it?
criterion met

Please check the record C=CC[C@]1(C(=O)N2CCOCC2)N=C(c2ccc(OCCCO)cc2)O[C@H]1c1ccccc1CN=[N+]=[N-] and state if its composite z-score is at or above 0.3.
criterion met

State whether the measured composite z-score reaches 0.3, counting equality as reaching it, for C=C(C)[C@@H]1CC=C(C(O)C2C=CC3C(=O)N(C4CCCCC4)C(=O)C3N2Nc2ccc(OC)cc2)CC1 (stereo not given in full)
criterion not met

Identify whether the reported composite z-score of the following molecule is 0.3 or greater: CCCCC(CC)C(O)C1C=CC2C(=O)NC(=O)C2N1Nc1ccccn1 (stereo not given)
criterion not met

Hello, I need to know if COC(=O)[C@@]1(Cc2ccc(F)cc2)[C@H]2c3cc(C(=O)N4CCCC4)n(Cc4ccccc4)c3C[C@H]2CN1C(=O)c1ccccc1 has measured composite z-score not below 0.3. Thanks!
criterion met

composite z-score >= 0.3 for C=C[C@@H](O)[C@H]1CC(c2ccccc2)=NO1 ?
criterion not met

Exam item: decide whether the reported composite z-score for O=C1c2ccccc2[C@](Cc2ccccc2I)(C(=O)NC2CC2)[C@H](c2ccc(CO)cc2)N1Cc1ccccc1Cl is at least 0.3.
criterion met

Given the entry CCCCCCC#C[Si](O[C@H](c1ccccc1)c1cn(Cc2cccc(Cl)c2)nn1)(C(C)C)C(C)C , answer whether its composite z-score meets or surpasses 0.3.
criterion not met

Does the molecule COC(=O)c1ccc(OC)c(/C=C\CC(CCc2ccccc2)OC(C)=O)c1 (stereo not given) have recorded composite z-score that is 0.3 or more?
criterion not met

Confirm if composite z-score reported for the molecule COC(=O)C(CC#Cc1ccc2c(c1)[C@]1(C(=O)N2)[C@H](c2ccc(OCCO)cc2)N2[C@H](c3ccccc3)[C@H](c3ccccc3)OC(=O)[C@H]2[C@@H]1C(=O)O)C(=O)OC is 0.3 or above.
criterion not met

hey, is composite z-score for this one >= 0.3? CCCCCCCCCCC(O)C1C=CC2C(=O)NC(=O)C2N1Nc1ccccn1 (stereo not given)
criterion not met

Check this molecule for composite z-score at or above 0.3: CC(C)NC(=O)[C@@H]1c2ccccc2C(=O)N(Cc2cc(C(F)(F)F)cc(C(F)(F)F)c2)[C@H]1c1ccc(CO)cc1
criterion not met

Form field: composite z-score at least 0.3? Entry: C[C@]12C(=O)N(CCCO)[C@@H]3C(=O)N(c4ccc(Cl)cc4)CC=CC31O[C@@H]1/C=C\CCCOC(=O)C12 (stereo not given in full)
criterion not met

Quick check: does O=C1NC(=O)C2C1C=CC(C(O)c1ccc(-c3ccccc3)s1)N2Nc1ccccn1 (stereo not given) have composite z-score greater than or equal to 0.3?
criterion met

Does composite z-score meet or surpass 0.3 for COC(=O)[C@@]1(Cc2ccccc2)[C@H]2c3cc(C(=O)N(C)C)n(Cc4ccc(O)c(OC)c4)c3C[C@H]2CN1C(=O)c1ccccc1 ?
criterion met

Does the reported composite z-score for C=C(COC)/C(=C/C[C@@H](OC(=O)c1ccncc1)c1cccc(OCCO)c1)c1cc(C(=O)OC)ccc1OC fall at or above the 0.3 mark?
criterion met

Reported composite z-score reaches at least 0.3 for CC(C)(C)OC(=O)CC[C@@]1(C(=O)N2CCCCC2)N=C(c2ccc(OCCCO)cc2)O[C@@H]1c1ccccc1CN=[N+]=[N-] ?
criterion met

Given the entry COc1ccc([Si](C)(C)[C@@H]2[C@@H](CCO)O[C@]3(C(=O)N(Cc4ccccc4)c4ccc(N5CCCCC5=O)cc43)[C@H]2C)cc1 , answer whether its composite z-score meets or surpasses 0.3.
criterion not met

Could you verify whether the entry C=CC[C@]1(C(=O)NCC(O)CO)N=C(c2ccc(OCCCO)cc2)O[C@H]1c1ccccc1N=[N+]=[N-] (stereo not given in full) shows composite z-score of no less than 0.3?
criterion not met
